target: AtGID1c in the presence of GAI (Arabidopsis thaliana); test: Scatchard analysis of AtGID1c-GA binding in the presence of GAI
Sequence (Q940G6 whole entry): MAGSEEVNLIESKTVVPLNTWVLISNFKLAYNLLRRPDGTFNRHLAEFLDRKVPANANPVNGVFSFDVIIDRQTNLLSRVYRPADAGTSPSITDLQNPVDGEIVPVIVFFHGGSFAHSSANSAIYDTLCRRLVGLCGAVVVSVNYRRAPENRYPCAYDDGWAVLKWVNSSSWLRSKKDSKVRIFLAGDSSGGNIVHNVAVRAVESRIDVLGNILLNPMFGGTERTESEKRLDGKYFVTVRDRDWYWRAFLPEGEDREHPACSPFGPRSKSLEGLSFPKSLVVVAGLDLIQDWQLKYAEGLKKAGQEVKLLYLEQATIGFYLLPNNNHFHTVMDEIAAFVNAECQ
Sequence (Q9LQT8 whole entry partner): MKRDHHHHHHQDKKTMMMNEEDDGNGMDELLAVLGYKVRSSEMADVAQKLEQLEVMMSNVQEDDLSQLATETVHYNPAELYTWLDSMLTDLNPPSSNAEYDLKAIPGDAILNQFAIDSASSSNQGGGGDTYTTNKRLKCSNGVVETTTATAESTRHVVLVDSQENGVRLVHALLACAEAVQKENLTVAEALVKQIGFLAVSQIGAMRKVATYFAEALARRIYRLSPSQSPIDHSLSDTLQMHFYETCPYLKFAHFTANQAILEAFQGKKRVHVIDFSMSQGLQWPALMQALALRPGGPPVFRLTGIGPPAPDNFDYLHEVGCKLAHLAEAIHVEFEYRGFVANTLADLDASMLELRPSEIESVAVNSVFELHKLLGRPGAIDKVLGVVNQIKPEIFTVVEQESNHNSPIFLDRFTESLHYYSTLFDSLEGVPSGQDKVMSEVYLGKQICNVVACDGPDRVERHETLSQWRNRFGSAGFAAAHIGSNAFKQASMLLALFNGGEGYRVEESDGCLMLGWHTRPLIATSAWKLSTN
quantity.kind: Kd

compound	system.under.test	result.value
CC1C[C@]23C[C@H]1CCC2[C@]12CC[C@H](O)[C@](C)(C(=O)O1)[C@H]2[C@@H]3C(=O)O (stereo partly shown) [H2-GA4, 16,17-dihydro-GA4]	AtGID1c in the presence of GAI (Arabidopsis thaliana)	46 nM

* * *

Molecular target: AtGID1b (Arabidopsis thaliana)
Sequence (Q9LYC1 1-358): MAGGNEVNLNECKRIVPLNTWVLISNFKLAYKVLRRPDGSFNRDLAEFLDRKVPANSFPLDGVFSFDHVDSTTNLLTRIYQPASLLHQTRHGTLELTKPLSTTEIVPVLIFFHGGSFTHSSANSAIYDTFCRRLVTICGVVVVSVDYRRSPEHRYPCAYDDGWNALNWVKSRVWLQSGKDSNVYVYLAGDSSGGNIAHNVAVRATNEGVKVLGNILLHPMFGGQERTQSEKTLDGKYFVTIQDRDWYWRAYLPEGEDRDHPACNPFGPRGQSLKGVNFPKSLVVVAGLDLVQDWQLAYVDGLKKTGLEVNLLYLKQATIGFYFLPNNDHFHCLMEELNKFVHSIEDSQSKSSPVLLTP
pIC50: −log10 of the molar value.
quantity.kind: pIC50

compound	result.value
CC1C[C@]23C[C@H]1CCC2[C@]12CC[C@H](O)[C@](C)(C(=O)O1)[C@H]2[C@@H]3C(=O)O (stereo partly shown) [H2-GA4, 16,17-dihydro-GA4]	6.40
